Tested on: Human alphaherpesvirus 1
TEST_SUMMARY: Ratio of maximum nontoxic concentration (MNTC) against HSV-1 to that of effective concentration (EC50)
Type: functional, herpes simplex virus
Task for the reader: assign each of the following compounds its reported Ratio.
Answers are plain numbers.

Previously resolved entries follow.
COMPOUND	Ratio
C=C(C)[C@@H]1CC[C@]2(C(=O)O)CC[C@]3(C)[C@H](CC[C@@H]4[C@@]5(C)CC[C@H](O)C(C)(C)[C@@H]5CC[C@]43C)[C@@H]12 [BETULINIC ACID]	53.3
C=C(C)[C@@H]1CCC2(NC(=O)N[C@H](CCSC)C(=O)OC)CC[C@@]3(C)C(CC[C@@H]4[C@@]5(C)CC/C(=N\O)C(C)(C)C5CC[C@]43C)C12 (stereo partly drawn)	67.6
C=C(C)[C@@H]1CC[C@]2(C(=O)N[C@H](C(=O)OC)C(C)C)CC[C@@]3(C)C(CC[C@@H]4[C@@]5(C)CCC(=O)C(C)(C)C5CC[C@]43C)C12 (stereo partly drawn)	2.5
C=C(C)[C@@H]1CCC2(NC(=O)N[C@@H](C(=O)OC)C(C)C)CC[C@@]3(C)C(CC[C@@H]4[C@@]5(C)CCC(=O)C(C)(C)C5CC[C@]43C)C12 (stereo partly drawn)	454
C=C(C)[C@@H]1CC[C@]2(C(=O)O)CC[C@]3(C)[C@H](CC[C@@H]4[C@@]5(C)CCC(=O)C(C)(C)[C@@H]5CC[C@]43C)[C@@H]12 [BETUNOLIC ACID]	43.9
C=C(C)[C@@H]1CC[C@]2(C(=O)NN)CC[C@@]3(C)C(CC[C@@H]4[C@@]5(C)CCC(=O)C(C)(C)C5CC[C@]43C)C12 (stereo partly drawn)	21.3
C=C(C)[C@@H]1CCC2(NC(=O)N[C@H](CC(C)C)C(=O)OC)CC[C@@]3(C)C(CC[C@@H]4[C@@]5(C)CCC(=O)C(C)(C)C5CC[C@]43C)C12 (stereo partly drawn)	11.5

Below: the item to evaluate.
Given C=C(C)[C@@H]1CC[C@]2(C(=O)NCCCCCCCCCCCCCCCCCC)CC[C@@]3(C)C(CC[C@@H]4[C@@]5(C)CCC(=O)C(C)(C)C5CC[C@]43C)C12 (stereo partly drawn) , state its recorded Ratio.
177

* * *

System: Human alphaherpesvirus 1
TEST_SUMMARY: Ratio of maximum nontoxic concentration (MNTC) against HSV-1 to that of effective concentration (EC50)
Format: functional, herpes simplex virus
TEST_READOUT: Ratio
One number for each entry.

COMPOUND	Ratio
C=C(C)[C@@H]1CC[C@]2(C(=O)N[C@@H](C)C(=O)OC)CC[C@@]3(C)C(CC[C@@H]4[C@@]5(C)CCC(=O)C(C)(C)C5CC[C@]43C)C12 (stereo partly drawn)	1.4

Below: the item to evaluate.
Given C=C(C)[C@@H]1CCC2(NC(=O)N[C@H](CCSC)C(=O)OC)CC[C@@]3(C)C(CC[C@@H]4[C@@]5(C)CCC(=O)C(C)(C)C5CC[C@]43C)C12 (stereo partly drawn) , state its recorded Ratio.
298.5

* * *

Task for the reader: assign each of the following compounds its reported Ratio.
Tested on: Human alphaherpesvirus 1
TEST_SUMMARY: Ratio of maximum nontoxic concentration (MNTC) against HSV-1 to that of effective concentration (EC50)
Assay type: functional, herpes simplex virus

Previously resolved entries follow.
COMPOUND	MEAS_VALUE
C=C(C)[C@@H]1CC[C@]2(C(N)=O)CC[C@@]3(C)C(CC[C@@H]4[C@@]5(C)CCC(=O)C(C)(C)C5CC[C@]43C)C12 (stereo not given in full)	<1
C=C(C)[C@@H]1CC[C@]2(C(=O)N[C@@H](CC(C)C)C(=O)OC)CC[C@@]3(C)C(CC[C@@H]4[C@@]5(C)CCC(=O)C(C)(C)C5CC[C@]43C)C12 (stereo not given in full)	<1
C=C(C)[C@@H]1CC[C@]2(C(=O)NN)CC[C@@]3(C)C(CC[C@@H]4[C@@]5(C)CC/C(=N\O)C(C)(C)C5CC[C@]43C)C12 (stereo not given in full)	<1
C=C(C)[C@@H]1CC[C@]2(C(=O)N[C@@H](CCSC)C(=O)OC)CC[C@@]3(C)C(CC[C@@H]4[C@@]5(C)CCC(=O)C(C)(C)C5CC[C@]43C)C12 (stereo not given in full)	<1

Given C=C(C)[C@@H]1CC[C@]2(N=C=O)CC[C@@]3(C)C(CC[C@@H]4[C@@]5(C)CCC(=O)C(C)(C)C5CC[C@]43C)C12 (stereo not given in full) , state its recorded Ratio.
<1
